Target: human LPA1 (Homo sapiens)
Construct: expressed in transfected cells; host or cells: Chinese hamster ovary (CHO) cells
Sequence (Q92633 whole entry): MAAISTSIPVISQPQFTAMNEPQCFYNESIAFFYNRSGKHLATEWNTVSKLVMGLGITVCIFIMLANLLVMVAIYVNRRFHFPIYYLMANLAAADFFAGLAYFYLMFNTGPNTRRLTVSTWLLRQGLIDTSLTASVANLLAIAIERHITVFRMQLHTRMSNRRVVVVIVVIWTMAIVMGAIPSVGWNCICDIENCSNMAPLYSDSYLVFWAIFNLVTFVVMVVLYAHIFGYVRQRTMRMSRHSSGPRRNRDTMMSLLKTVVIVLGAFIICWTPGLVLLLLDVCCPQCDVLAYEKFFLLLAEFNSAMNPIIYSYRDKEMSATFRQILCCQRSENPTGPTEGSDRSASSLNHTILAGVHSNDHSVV
Assay: LPA1 functional antagonist assay (LPA-induced calcium flux)
Type: cell-based
Conditions: CHO cells overexpressing human LPA1; calcium flux induced by 10 nM LPA; read-out: hLPA1 IC50
Protocol: The effectiveness of compounds of the present invention as LPA1 inhibitors can be determined in an LPA1 functional antagonist assay as follows: The cells were then equilibrated to room temperature for 30 minutes before the assay. […] IC50 values were determined by fitting data to a 4-parameter logistic equation (GraphPad Prism, San Diego CA).
pIC50: −log10 of the molar value.
Quantity: pIC50

                                   compound  obs_value
0  Cc1nc(-c2nnn(C)c2Cn2nnc(CC3CC3)n2)ccc1OC[C@@H]1CC[C@H]1C(=O)O (single isomer, unassigned) [Example 38]       7.20

I. CN(C(=O)OCc1c(-c2ccc(OCC34CC(C(=O)O)(C3)C4)cn2)nnn1C)C1CCCC1 [Example 51]
II. CC[C@H](C)COC(=O)NCc1c(-c2ccc(OC[C@@H]3CC[C@H]3C(=O)O)c(C)n2)nnn1C (racemic) [Example 43]
III. Cc1nc(-c2nnn(C)c2CNC(=O)OCC(C)CC(F)(F)F)ccc1OC[C@@H]1CC[C@H]1C(=O)O (mixture of isomers) [Example 44]
Form: Sort by [pIC50] Order [ ascending ] List each label, following the requested order. I, III, II
(I: 6.38, III: 6.99, II: 7.33)

1. CCCCOC(=O)NCc1c(-c2ccc(OC[C@@H]3CC[C@H]3C(=O)O)c(C)n2)nnn1C (racemic) [Example 42]
2. CCc1cc(OCc2c(-c3ccc(OC[C@@H]4CC[C@H]4C(=O)O)c(C)n3)nnn2C)ncn1 (racemic) [Example 11]
Which numeric pIC50 is bigger, that of 1 or that of 2 ? Lab log: write the label of the selected item as the result. 2
(2: 7.38, 1: 6.19)
